# System tested: PRMT1 (Homo sapiens, UniProt Q99873)
# Construct: GST-tagged PRMT1; made in house; host or cells: High Five insect cells (baculovirus, pFastBacI)
# Sequence (Q99873 with tags, fused parts or gaps): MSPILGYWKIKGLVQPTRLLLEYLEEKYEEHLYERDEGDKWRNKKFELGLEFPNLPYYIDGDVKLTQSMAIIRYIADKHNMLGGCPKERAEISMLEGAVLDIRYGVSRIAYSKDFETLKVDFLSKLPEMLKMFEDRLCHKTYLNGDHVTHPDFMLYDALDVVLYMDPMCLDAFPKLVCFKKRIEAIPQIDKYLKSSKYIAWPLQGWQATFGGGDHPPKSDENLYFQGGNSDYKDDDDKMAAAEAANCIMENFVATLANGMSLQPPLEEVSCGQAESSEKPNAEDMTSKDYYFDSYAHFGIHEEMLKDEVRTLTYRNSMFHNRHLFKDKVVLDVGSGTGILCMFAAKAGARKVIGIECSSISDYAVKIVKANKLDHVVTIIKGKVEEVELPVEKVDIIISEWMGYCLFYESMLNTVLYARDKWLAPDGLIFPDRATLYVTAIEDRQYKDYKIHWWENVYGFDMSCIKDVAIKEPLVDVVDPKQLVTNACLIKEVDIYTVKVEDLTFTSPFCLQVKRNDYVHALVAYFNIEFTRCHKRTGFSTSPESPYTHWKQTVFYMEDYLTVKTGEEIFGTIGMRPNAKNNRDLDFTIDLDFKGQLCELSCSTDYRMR
# Assay procedure: PRMT1 Biochemical Assay (3H-SAM Flashplate, histone H4 peptide substrate)
# Experimental conditions: Biochemical IC50 (Numerical, μM) PRMT1, single experiment or average of multiple experiments, Table 2a
molecules and their reported IC50
Write it as a number; the unit µM goes unstated.

CNCCN(C)Cc1c[nH]nc1-c1cc(OCc2ccccc2)cc(C(F)(F)F)c1 = 0.0185
CCCOc1cc(-c2c[nH]nc2CN(C)CCNC)cc(C(F)(F)F)c1 = 0.17
CNCCN(C)Cc1n[nH]cc1-c1cc(OCCCOC)cc(C(F)(F)F)c1 = 0.139
CNCCN(C)Cc1c[nH]nc1-c1cc(OCC2CCC2)cc(C(F)(F)F)c1 = 0.0132
CNCCN(C)Cc1c[nH]nc1-c1cc(CCC(C)C)cc(C(F)(F)F)c1 = 0.0136

Task item: // IC50 lookup, key: `CN(CCN)Cc1n[nH]cc1-c1ccc(Oc2ccccc2)c(C(F)(F)F)c1`
Reply: 0.00917

Task item: // query IC50 value for entry `CNCCN(C)Cc1c[nH]nc1-c1cc(Cl)c(OC(C)C)c(C(F)(F)F)c1`
Reply: 0.0101

Task item: Reported IC50 for `CNCCN(C)Cc1c[nH]nc1-c1cc(Oc2ccccc2)cc(C(F)(F)F)c1` : what is it?
Reply: 0.0123

Reference for the values: patent US20160039767A1
